# System under test: Melanocortin receptor 4 (Homo sapiens, UniProt P32245)
# Sequence (P32245 whole entry): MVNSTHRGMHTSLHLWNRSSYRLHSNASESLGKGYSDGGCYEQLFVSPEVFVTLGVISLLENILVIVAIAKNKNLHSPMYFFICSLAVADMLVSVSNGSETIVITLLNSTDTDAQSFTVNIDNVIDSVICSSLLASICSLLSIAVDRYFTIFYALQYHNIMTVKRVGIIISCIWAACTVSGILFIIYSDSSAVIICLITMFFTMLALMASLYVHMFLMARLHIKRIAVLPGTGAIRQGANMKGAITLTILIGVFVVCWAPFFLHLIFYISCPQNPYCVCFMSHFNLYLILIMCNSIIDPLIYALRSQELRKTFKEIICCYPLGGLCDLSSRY
# Assay method text: Intrinsic activity at human MC4 receptor expressed in CHO cells assessed as cAMP accumulation relative to alpha-MSH
# Type: functional, cell-based
Intrinsic activity values by entry
Supply the numeric figure in %, leaving out any unit text.

Sample answers from the record:
CC(C)[C@H](N)c1cccc(F)c1N1CCN(C(=O)[C@H]2CN(Cc3ccccc3)C[C@@H]2c2ccc(Cl)cc2)CC1    3
CC(C)C[C@H](N)c1cc(C(F)(F)F)ccc1N1CCN(C(=O)[C@@H]2CN(CCN)C[C@H]2c2ccc(Cl)cc2)CC1    37

Turning now to a further molecule:
Task: Please list Intrinsic activity recorded for the molecule `CC(C)C[C@H](N)c1cc(C(F)(F)F)ccc1N1CCN(C(=O)[C@@H]2CN(C(=O)OC(C)(C)C)C[C@H]2c2ccc(Cl)cc2)CC1`
Output: 32

---

# Assay method text: Ratio of drug level in brain to plasma in rat at 2.5 mg/kg, iv
# Type: ADME, organism-based
# Set-up: dose 2.5 mg/kg, route intravenous
# Assay context: read-out: BPR
Assay endpoint: Kp
Write the number on its own, no unit after it.

Task: Identify measured Kp corresponding to `Cc1ccc(N2CCN(C(=O)[C@@H]3CN(C4CCOCC4)C[C@H]3c3ccc(Cl)cc3)CC2)c([C@@H](N)C(C)C)c1`
Output: 0.7

---

Consider the following molecules and their measured EC50 readings.
# System under test: Melanocortin receptor 4 (Homo sapiens, UniProt P32245)
# Assay method text: Agonist activity at human MC4 receptor expressed in CHO cells assessed as cAMP accumulation by ELISA
Numbers only here, please. The scale is nM.

Task: Output measured EC50 for this item: `CC(=O)N1C[C@@H](C(=O)N2CCN(c3ccc(C(F)(F)F)cc3[C@@H](N)CC(C)C)CC2)[C@H](c2ccc(Cl)cc2)C1`
Output: 1900

Task: Please give the documented EC50 of `CC(C)C[C@H](N)c1cc(C(F)(F)F)ccc1N1CCN(C(=O)[C@@H]2CN(Cc3ccccc3)C[C@H]2c2ccc(Cl)cc2)CC1`
Output: 7300

Task: Given `COc1ccc([C@@H]2CN(C(C)C)C[C@H]2C(=O)N2CCN(c3ccc(C(F)(F)F)cc3[C@@H](N)CC(C)C)CC2)cc1` , respond with its EC50.
Output: 450

Task: Recall and state the measured EC50 for `CC(C)[C@H](N)c1cccc(F)c1N1CCN(C(=O)[C@@H]2CN(C3CCCC3)C[C@H]2c2ccc(Cl)cc2)CC1` .
Output: 400

Task: Please indicate EC50 recorded for `CC(C)CN1C[C@@H](C(=O)N2CCN(c3c(F)cccc3[C@@H](N)C(C)C)CC2)[C@H](c2ccc(Cl)cc2)C1`
Output: 1400

Task: Give EC50 for `Cc1ccc(N2CCN(C(=O)[C@@H]3CN(C4CCOCC4)C[C@H]3c3ccc(Cl)cc3)CC2)c([C@@H](N)C(C)C)c1`
Output: 24

---

# System under test: Melanocortin receptor 4 (Homo sapiens, UniProt P32245)
# Assay method text: Antagonist activity at human MC4 receptor expressed in CHO cells assessed as inhibition of alpha-MSH-stimulated of cAMP production by ELISA
Assay endpoint: IC50 (nM)
Provide the reading as a plain figure in nM.

Cc1ccc(N2CCN(C(=O)[C@H]3CN(C4CCOCC4)C[C@@H]3c3ccc(Cl)cc3)CC2)c([C@@H](N)C(C)C)c1    65

Next:
Task: Give the measured IC50 for `Cc1ccc(N2CCN(C(=O)[C@@H]3CN(C4CCN(CC(C)C)CC4)C[C@H]3c3ccc(Cl)cc3)CC2)c([C@@H](N)C(C)C)c1`
Output: 1800

---

# Assay method text: Plasma clearance in rat at 2.5 mg/kg, iv
# Assay type: ADME, organism-based
# Set-up: dose 2.5 mg/kg, route intravenous
Assay endpoint: clearance

Task: For the molecule `Cc1ccc(N2CCN(C(=O)[C@@H]3CN(C4CCOCC4)C[C@H]3c3ccc(Cl)cc3)CC2)c([C@@H](N)C(C)C)c1` , report clearance.
Output: 118 mL/min/kg

---

# System under test: Melanocortin receptor 4 (Homo sapiens)
# Assay method text: Intrinsic activity at human MC4 receptor expressed in CHO cells assessed as cAMP accumulation relative to alpha-MSH
# Assay type: functional, cell-based
Intrinsic activity vs 10%: at or above is yes, below is no.

Answered cases to consult:
Cc1ccc(N2CCN(C(=O)[C@@H]3CN(C(=O)CCCCc4ccccc4)C[C@H]3c3ccc(Cl)cc3)CC2)c([C@@H](N)C(C)C)c1    no
CC(C)C[C@H](N)c1cc(C(F)(F)F)ccc1N1CCN(C(=O)[C@@H]2CN(C(=O)CN)C[C@H]2c2ccc(Cl)cc2)CC1    yes
Cc1ccc(N2CCN(C(=O)[C@@H]3CN(C(=O)CCc4ccccc4)C[C@H]3c3ccc(Cl)cc3)CC2)c([C@@H](N)C(C)C)c1    no
CC(=O)N1C[C@@H](C(=O)N2CCN(c3ccc(C)cc3[C@@H](N)C(C)C)CC2)[C@H](c2ccc(Cl)cc2)C1    yes
CC(C)C[C@H](N)c1cc(C(F)(F)F)ccc1N1CCN(C(=O)[C@@H]2CN(S(C)(=O)=O)C[C@H]2c2ccc(Cl)cc2)CC1    yes

Task: For this compound, is measured Intrinsic activity 10% or higher? `Cc1ccc(N2CCN(C(=O)[C@@H]3CN(Cc4ccccc4)C[C@H]3c3ccc(Cl)cc3)CC2)c([C@@H](N)C(C)C)c1`
Output: yes

---

Data export: Ki values recorded with Melanocortin receptor 4 (Homo sapiens).
Numbers only here, please. The scale is nM.

Cc1ccc(N2CCN(C(=O)[C@@H]3CN(C(=O)OC(C)(C)C)C[C@H]3c3ccc(Cl)cc3)CC2)c([C@@H](N)C(C)C)c1    15
Cc1ccc(N2CCN(C(=O)[C@@H]3CN(C4CCN(CC(C)C)CC4)C[C@H]3c3ccc(Cl)cc3)CC2)c([C@@H](N)C(C)C)c1    5.4
CC(C)[C@H](N)c1cc(C(F)(F)F)ccc1N1CCN(C(=O)[C@@H]2CN(Cc3ccccc3)C[C@H]2c2ccc(Cl)cc2Cl)CC1    610

Lab note: next molecule to report on.
Task: Under Melanocortin receptor 4 (Homo sapiens), report Ki for `CC(C)C[C@H](N)c1cc(C(F)(F)F)ccc1N1CCN(C(=O)[C@@H]2CN(C(=O)CN)C[C@H]2c2ccc(Cl)cc2)CC1`
Output: 96

---

# Assay method text: AUC in rat at 10 mg/kg, po
# Format: ADME, organism-based
# Set-up: dose 10 mg/kg, route oral
# Assay context: plasma
Assay endpoint: AUC (ng·h/mL)
// note: answer is a bare numeric in ng·h/mL

Task: Tell me measured AUC for `Cc1ccc(N2CCN(C(=O)[C@@H]3CN(C4CCOCC4)C[C@H]3c3ccc(Cl)cc3)CC2)c([C@@H](N)C(C)C)c1` please.
Output: 154

---

# Assay method text: Half life in rat at 2.5 mg/kg, iv
# Type: ADME, organism-based
# Parameters: dose 2.5 mg/kg, route intravenous
# Assay context: in vivo
Assay endpoint: half-life

Task: Identify measured half-life associated with `Cc1ccc(N2CCN(C(=O)[C@@H]3CN(C4CCOCC4)C[C@H]3c3ccc(Cl)cc3)CC2)c([C@@H](N)C(C)C)c1`
Output: 27 h

---

# Assay method text: Concentration in rat brain at 2.5 mg/kg, iv after 1 hr
# Assay type: ADME, organism-based
# Design: dose 2.5 mg/kg, route intravenous
# Assay context: read-out: Drug uptake
Assay endpoint: concentration at 1 h
Units required after the number.

Task: Return value of concentration at 1 h for input `Cc1ccc(N2CCN(C(=O)[C@@H]3CN(C4CCOCC4)C[C@H]3c3ccc(Cl)cc3)CC2)c([C@@H](N)C(C)C)c1` , no commentary.
Output: 5 ng/g

---

# Assay method text: Apparent permeability across apical to basolateral side of Caco-2 cells
# Format: ADME, cell-based
# Assay context: human
Assay endpoint: Papp A→B
Please append the unit to your numeric answer.

Task: Output Papp A→B of `Cc1ccc(N2CCN(C(=O)[C@@H]3CN(C4CCOCC4)C[C@H]3c3ccc(Cl)cc3)CC2)c([C@@H](N)C(C)C)c1`
Output: 0.8 ×10⁻⁶ cm/s

---

# Assay method text: Volume of distribution in rat at 2.5 mg/kg, iv
# Assay type: ADME, organism-based
# Set-up: dose 2.5 mg/kg, route intravenous
# Assay context: in vivo
Assay endpoint: Vd (L/kg)
Your answer should be a plain number; it is taken to be in L/kg.

Task: Note down Vd recorded for `Cc1ccc(N2CCN(C(=O)[C@@H]3CN(C4CCOCC4)C[C@H]3c3ccc(Cl)cc3)CC2)c([C@@H](N)C(C)C)c1`
Output: 270

---

Quick note: these are Ki numbers for system: Melanocortin receptor 5 (Homo sapiens)
Sequence (P33032 whole entry): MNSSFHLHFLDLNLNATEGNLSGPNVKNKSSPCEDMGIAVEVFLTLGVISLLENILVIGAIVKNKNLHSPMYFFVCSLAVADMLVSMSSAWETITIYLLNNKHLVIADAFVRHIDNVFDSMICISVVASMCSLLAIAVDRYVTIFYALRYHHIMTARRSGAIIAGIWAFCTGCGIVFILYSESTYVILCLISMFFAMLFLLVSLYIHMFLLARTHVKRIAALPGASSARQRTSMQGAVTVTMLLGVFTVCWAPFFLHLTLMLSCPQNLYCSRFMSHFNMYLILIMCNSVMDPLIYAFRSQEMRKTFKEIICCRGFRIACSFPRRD
Could you give me the number in nM? Just the number is fine.

Cc1ccc(N2CCN(C(=O)[C@H]3CN(C4CCOCC4)C[C@@H]3c3ccc(Cl)cc3)CC2)c([C@@H](N)C(C)C)c1    380

Query compound follows.
Task: Name the recorded Ki of the item `Cc1ccc(N2CCN(C(=O)[C@@H]3CN(C4CCOCC4)C[C@H]3c3ccc(Cl)cc3)CC2)c([C@@H](N)C(C)C)c1` in your answer.
Output: 240
